Test system: Escherichia coli
assay explanation: Inhibition of Escherichia coli MurA using PEP as substrate assessed as inorganic phosphate release at 25 uM preincubated for 10 mins measured after 60 mins […]
Active and inactive are the calls of the source. No rule for the calls is given here.
measured quantity: inhibition

I have this compound here, O=C1NC(=S)S/C1=C\c1sccc1Br , and I need its recorded inhibition. 20%

What do you get for O=C1CSC(=O)N1 ? inactive

What do you get for O=C1NC(=O)/C(=C/c2ccc(Cl)cc2Cl)N1 ? inactive

What do you get for CC(=O)N1C(=S)NC(=O)[C@H]1Cc1ccccc1 ? 15%

What do you get for COc1ccccc1/C=C1\SC(=O)NC1=O ? 25%

Continuing:
I have this compound here, CC(=O)N1C(=S)NC(=O)[C@@H]1CCCCN , and I need its recorded inhibition. 12%

What do you get for O=C1NC(=S)N/C1=C\c1ccc(O)c(O)c1 ? 46%

What do you get for O=C1NC(=S)N/C1=C\c1ccccc1 ? inactive

What do you get for CC(=O)N1C(=S)NC(=O)[C@@H]1Cc1ccccc1 ? 19%

What do you get for COc1ccc(/C=C2\NC(=O)NC2=O)cc1OC ? inactive

What do you get for O=C1NC(=S)N/C1=C\c1ccc(O)cc1 ? 11%
